Reference for the values: PubChem BioAssay (NCI)

test system: SN12C renal; test: NCI tumour cell line growth inhibition, 48 h
In this section, each of the molecules is paired with its reported TGI.
assay_metric: TGI (µM)

[[record]]
molecule = "O=C(O)c1ccc(C2SCc3nc4ccccc4n32)cc1 (configuration not stated)"
study_system = "SN12C renal"
assay_metric = "TGI"
bound_type = ">"
value = 100

[[record]]
molecule = "CCOP(=O)(OCC)/C(C#N)=C/c1cnc[nH]1"
study_system = "SN12C renal"
assay_metric = "TGI"
bound_type = ">"
value = 100

[[record]]
molecule = "CCOc1cccc(-c2nc(N)nc(Nc3ccccc3SSc3ccccc3Nc3nc(N)nc(-c4cccc(OCC)c4)n3)n2)c1"
study_system = "SN12C renal"
assay_metric = "TGI"
bound_type = "="
value = 14.8

[[record]]
molecule = "CSc1ccc(/C=C2\\N=C(c3ccccc3)N(c3nc4cc(C)c(C)cc4s3)C2=O)cc1"
study_system = "SN12C renal"
assay_metric = "TGI"
bound_type = "="
value = 72.4

[[record]]
molecule = "O=C1C(Cl)N(c2cccc([N+](=O)[O-])c2)C1c1c[nH]c2ccccc12 (configuration not stated)"
study_system = "SN12C renal"
assay_metric = "TGI"
bound_type = ">"
value = 100

[[record]]
molecule = "COC(=O)/C=C/C1(O)C=CC(=O)C=C1"
study_system = "SN12C renal"
assay_metric = "TGI"
bound_type = "="
value = 3.32

[[record]]
molecule = "Nc1cc(=O)n(-c2ccccc2)c(=S)n1-c1ccccc1"
study_system = "SN12C renal"
assay_metric = "TGI"
bound_type = ">"
value = 100

[[record]]
molecule = "COC(=O)CCC(C)C1CCC2C3C(C[C@H](OC(C)=O)[C@]12C)[C@@]1(C)CCC2(C[C@H]1C[C@H]3OC(C)=O)OOC1(CC[C@]3(C)C4C[C@H](OC(C)=O)[C@]5(C)C(C(C)CCC(=O)OC)CCC5C4[C@H](OC(C)=O)C[C@@H]3C1)OO2 (some centres not stated)"
study_system = "SN12C renal"
assay_metric = "TGI"
bound_type = ">"
value = 100

[[record]]
molecule = "CCOC(=O)C(=O)/C(=C/N1C(=O)CC(=O)NC1=S)C(=O)OCC"
study_system = "SN12C renal"
assay_metric = "TGI"
bound_type = ">"
value = 100

[[record]]
molecule = "CC(C)Cc1cc2c(cc1O)CCC1C2CC[C@@]2(C)C1CC[C@@H]2O (some centres not stated)"
study_system = "SN12C renal"
assay_metric = "TGI"
bound_type = "="
value = 21.9

[[record]]
molecule = "Cc1cc(C)nc(NS(=O)(=O)c2ccc(Nc3c4ccc(Cl)cc4nc4c(C(=O)NCCN(C)C)cccc34)cc2)n1"
study_system = "SN12C renal"
assay_metric = "TGI"
bound_type = ">"
value = 100

[[record]]
molecule = "CCNC(=O)O/N=C1\\CCC2[C@@H]3CC=C4C[C@@H](OC5CCCCO5)CC[C@]4(C)C3CC[C@]12C (some centres not stated)"
study_system = "SN12C renal"
assay_metric = "TGI"
bound_type = "="
value = 6.07

